condition: in ethylene glycol, 303.15 K
measuredParameter: solubility (mole fraction)

I'd like to know its solubility (mole fraction). The compound in question is NC(=O)c1ccc([N+](=O)[O-])cc1
0.00719

###

condition: in n-propanol, 293.15 K
measuredParameter: solubility (mole fraction)
Lab note: record just the number, no unit beside it.

Please give the measured solubility (mole fraction) for this molecule: NC(=O)c1ccc([N+](=O)[O-])cc1
0.00151

###

condition: in ethylene glycol, 283.15 K
measuredParameter: solubility (mole fraction)

Recorded solubility (mole fraction) for NC(=O)c1ccc([N+](=O)[O-])cc1 , please?
0.00356

###

condition: in NMP, 303.15 K
measuredParameter: solubility (mole fraction)
Give only the figure.

Can you look up the measured solubility (mole fraction) of NC(=O)c1ccc([N+](=O)[O-])cc1 for me?
0.0775
